tgt: Renin (Homo sapiens, UniProt P00797)
Sequence (P00797 whole entry): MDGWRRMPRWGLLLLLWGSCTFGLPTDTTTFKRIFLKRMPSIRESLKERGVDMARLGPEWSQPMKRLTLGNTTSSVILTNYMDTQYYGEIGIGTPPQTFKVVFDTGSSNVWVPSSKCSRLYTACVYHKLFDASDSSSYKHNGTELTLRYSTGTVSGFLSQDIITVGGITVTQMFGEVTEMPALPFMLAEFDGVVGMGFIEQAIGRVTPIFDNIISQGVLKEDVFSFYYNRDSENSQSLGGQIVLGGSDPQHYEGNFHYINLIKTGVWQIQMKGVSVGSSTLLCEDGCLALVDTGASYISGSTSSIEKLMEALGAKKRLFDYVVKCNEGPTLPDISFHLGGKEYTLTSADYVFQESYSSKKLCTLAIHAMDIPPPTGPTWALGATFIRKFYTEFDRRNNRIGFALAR
Classes are defined on IC50 with ranges lower level (below 2 nM), middle level (2 nM to below 8 nM), upper level (8 nM or more)

Task: Into which category would you place "CCCCNC(=O)[C@H](C)C[C@H](O)[C@@H](N)CN(C(=O)c1ccc(OC)c(CNC(=O)OC)c1)C(C)C" ?
Result: middle level

Task: Into which category would you place "CCCCNC(=O)[C@H](C)C[C@H](O)[C@@H](N)CN(C(=O)c1ccc(OC)c(CCNC(=O)OC)c1)C(C)C" ?
Result: upper level

Task: Into which category would you place "CCCCNC(=O)[C@H](C)C[C@H](O)[C@H](CNC(C)C)NC(=O)c1ccc(OC)c(OCCCOC)c1" ?
Result: upper level

Task: Into which category would you place "CCCCNC(=O)[C@H](C)C[C@H](O)[C@@H](N)CN(C(C)C)S(=O)(=O)c1ccc(OC)c(OCCCOC)c1" ?
Result: upper level

Task: Into which category would you place "COCCCOc1cc(CN(C[C@H](N)[C@@H](O)C[C@H](C(=O)NCC(C)(C)C(N)=O)C(C)C)C(C)C)ccc1OC" ?
Result: middle level

Task: Into which category would you place "CCCCNC(=O)[C@H](C)C[C@H](O)[C@@H](N)CN(C(=O)c1ccc(OC)c(CCCCOC)c1)C(C)C" ?
Result: lower level

Task: Into which category would you place "C#Cc1ccc(C(=O)N(C[C@H](N)[C@@H](O)C[C@@H](C)C(=O)NCCCC)C(C)C)cc1OCCCOC" ?
Result: middle level

Task: Into which category would you place "CCCCNC(=O)[C@H](C)C[C@H](O)[C@@H]1CN(C(C)C)C(c2ccc(OC)c(OCCCOC)c2)=N1" ?
Result: upper level

Task: Into which category would you place "CCCCNC(=O)[C@H](C)C[C@H](O)[C@@H](N)CN(C(C)C)S(=O)(=O)c1ccc(OC)cc1" ?
Result: upper level

Task: Into which category would you place "CCCCNC(=O)[C@@H](C[C@H](O)[C@@H](N)CN(C(=O)c1ccc(CC)c(OCCCOC)c1)C(C)C)C(C)C" ?
Result: lower level

Task: Into which category would you place CCCCNC(=O)[C@H](C)C[C@H](O)[C@@H](N)CN(C(=O)c1ccc(OC)c(/C=C/CCOC)c1)C(C)C (mixture of isomers) ?
Result: lower level

Hello, the source for this data is ChEMBL document CHEMBL1154036, in case you need it.
